# method-description: Plasma half life was reported after a intravenous dose of 1 mg/kg in Dawley rat
# Format: ADME, organism-based
# Parameters: dose 1 mg/kg, route intravenous
# condition-parameters: Sprague-Dawley
experimental-endpoint: half-life (min)
One number for each entry, in min.

molecule_smiles=O=C(O)[C@H](CCC(=O)N1CCC2(CC1)CCN(c1ccncc1)C2)NS(=O)(=O)c1cnoc1 units=min recorded_number=22.8

Turning now to a further compound:
# get_value(readout='half-life', item= `O=C(O)CC(=O)N1CCC(C(=O)N2CCC3(CC2)CCN(c2ccncc2)C3)CC1` )
58.8

* * *

# tested-on: Integrin alpha-IIb/beta-3 (Homo sapiens, UniProt P05106+P08514)
# Sequence (P05106 27-788 limits assumed): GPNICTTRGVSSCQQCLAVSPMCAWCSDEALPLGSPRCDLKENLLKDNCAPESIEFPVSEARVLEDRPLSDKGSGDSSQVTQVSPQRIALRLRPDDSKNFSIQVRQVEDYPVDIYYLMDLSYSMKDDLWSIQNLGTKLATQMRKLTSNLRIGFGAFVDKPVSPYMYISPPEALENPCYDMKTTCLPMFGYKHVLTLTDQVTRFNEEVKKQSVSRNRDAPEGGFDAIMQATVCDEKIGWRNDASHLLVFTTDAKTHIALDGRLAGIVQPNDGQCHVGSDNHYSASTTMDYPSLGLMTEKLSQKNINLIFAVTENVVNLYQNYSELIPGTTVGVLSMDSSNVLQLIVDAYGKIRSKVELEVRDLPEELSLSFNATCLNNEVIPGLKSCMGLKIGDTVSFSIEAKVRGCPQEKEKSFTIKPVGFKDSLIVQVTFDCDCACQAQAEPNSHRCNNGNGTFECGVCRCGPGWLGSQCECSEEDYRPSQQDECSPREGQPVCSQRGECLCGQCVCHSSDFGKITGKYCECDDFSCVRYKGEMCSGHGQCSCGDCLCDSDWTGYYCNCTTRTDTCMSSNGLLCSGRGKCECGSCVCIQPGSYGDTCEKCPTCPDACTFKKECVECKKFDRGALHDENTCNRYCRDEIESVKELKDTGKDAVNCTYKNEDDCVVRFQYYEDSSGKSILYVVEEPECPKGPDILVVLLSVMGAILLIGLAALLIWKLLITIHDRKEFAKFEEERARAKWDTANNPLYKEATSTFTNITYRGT
# Sequence (P08514 32-887 limits assumed): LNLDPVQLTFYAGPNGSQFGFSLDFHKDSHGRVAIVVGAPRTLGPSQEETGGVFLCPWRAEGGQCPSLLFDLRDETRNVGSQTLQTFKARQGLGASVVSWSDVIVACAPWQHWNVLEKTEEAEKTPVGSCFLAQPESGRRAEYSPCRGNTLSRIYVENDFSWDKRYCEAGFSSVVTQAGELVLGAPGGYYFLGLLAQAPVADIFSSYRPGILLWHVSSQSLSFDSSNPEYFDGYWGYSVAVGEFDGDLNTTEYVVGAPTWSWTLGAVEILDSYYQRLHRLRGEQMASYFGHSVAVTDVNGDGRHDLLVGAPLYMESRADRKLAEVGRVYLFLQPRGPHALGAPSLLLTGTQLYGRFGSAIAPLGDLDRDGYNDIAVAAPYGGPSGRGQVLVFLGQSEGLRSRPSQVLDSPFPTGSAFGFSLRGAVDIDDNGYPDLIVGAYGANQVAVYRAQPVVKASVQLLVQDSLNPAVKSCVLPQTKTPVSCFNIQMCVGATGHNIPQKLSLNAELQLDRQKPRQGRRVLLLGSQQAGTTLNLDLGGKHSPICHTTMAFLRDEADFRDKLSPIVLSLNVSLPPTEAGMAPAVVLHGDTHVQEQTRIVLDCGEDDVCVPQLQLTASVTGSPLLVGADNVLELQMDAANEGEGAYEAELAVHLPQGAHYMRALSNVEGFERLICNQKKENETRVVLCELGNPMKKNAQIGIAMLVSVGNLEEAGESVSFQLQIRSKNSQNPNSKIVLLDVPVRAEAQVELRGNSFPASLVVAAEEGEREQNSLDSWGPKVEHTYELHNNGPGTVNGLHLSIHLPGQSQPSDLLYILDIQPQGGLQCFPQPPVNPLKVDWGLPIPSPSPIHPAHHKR
# Sequence (P08514 891-1039 limits assumed): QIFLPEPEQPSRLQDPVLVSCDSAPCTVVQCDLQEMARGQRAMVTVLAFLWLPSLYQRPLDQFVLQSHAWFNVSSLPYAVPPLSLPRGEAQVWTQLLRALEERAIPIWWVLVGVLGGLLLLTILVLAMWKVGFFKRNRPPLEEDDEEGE
# method-description: In vitro activity to block the binding of fibrinogen to purified human fibrinogen receptor.
experimental-endpoint: pIC50
Answers are plain numbers, as −log10 of the molar value.

compound=O=C(O)[C@H](CCC(=O)N1CCC2(CC1)CCN(c1ccncc1)C2)NS(=O)(=O)c1cnoc1 tested_on="Integrin alpha-IIb/beta-3 (Homo sapiens, UniProt P05106+P08514)" recorded_number=8.70
compound="CC(CC(=O)O)N1CCC(C(=O)N2CCC3(CC2)CCN(c2ccncc2)C3)CC1 (stereo not given)" tested_on="Integrin alpha-IIb/beta-3 (Homo sapiens, UniProt P05106+P08514)" recorded_number=6.65
compound=O=C(O)CC(=O)N1CCN(C(=O)N2CCC3(CC2)CCN(c2ccncc2)C3)CC1 tested_on="Integrin alpha-IIb/beta-3 (Homo sapiens, UniProt P05106+P08514)" recorded_number=6.87
compound=O=C(N[C@@H](CCC(=O)N1CCC2(CC1)CCN(c1ccncc1)C2)C(=O)O)OCc1ccccc1 tested_on="Integrin alpha-IIb/beta-3 (Homo sapiens, UniProt P05106+P08514)" recorded_number=7.60
compound=O=C(O)CCN1CCCN(C(=O)N2CCC3(CC2)CCN(c2ccncc2)C3)CC1 tested_on="Integrin alpha-IIb/beta-3 (Homo sapiens, UniProt P05106+P08514)" recorded_number=6.60

State recorded pIC50 for all listed compounds.
1. O=C(O)CC(=O)N1CCC(C(=O)N2CCC3(CC2)CCN(c2ccncc2)C3)CC1
2. O=C(O)CC1CCN(C(=O)N2CCC3(CC2)CCN(c2ccncc2)C3)CC1

1. 8.40
2. 6.94
